Biological target: MMNAT (Mycobacterium marinum)
Assay: NAT inhibition assay (CoA formation), MMNAT
Format: biochemical
Details: 5ASA as substrate; mean ± S.D. of triplicate; read-out: MMNAT IC50 5ASA
Experimental: The NAT enzymes from M. smegmatis, S. typhimurium, P. aeruginosa, M. marinum, M. tuberculosis, hamster NAT2 [45] and human NAT1 [46] were produced as recombinant proteins, purified as previously described and stored at −80 in 20 mM Tris-HCl pH 8 containing 1 mM dithiothreitol and 5% glycerol and thawed and used within 1–5 h. […]
REPORTED_ENDPOINT: pIC50
Would you please state pIC50, meaning minus log10 of the concentration in mol/L, as a bare number?

Example entries begin here.
COMPOUND	pIC50
CCN1CCC(O)(c2ccccc2)C(C(=O)c2ccccc2)C1 (centres unmarked)	5.10
CN1CCC(O)(c2ccc(Cl)cc2)C(C(=O)c2ccc(Cl)cc2)C1 (centres unmarked)	5.85
O=C(c1ccccc1)C1CN(C2CCCCC2)CCC1(O)c1ccccc1 (centres unmarked)	5.77

Determine its reported pIC50: O=C(c1ccccc1)C1CN(C2CCCO2)CCC1(O)c1ccccc1 (centres unmarked)
5.05

Determine its reported pIC50: CC1(C)CC(N2CCC(O)(c3ccccc3)C(C(=O)c3ccccc3)C2)CC(C)(C)N1 (centres unmarked)
5.96

* * *

Molecular target: UniProtKB B2HIZ6
Test: NAT inhibition assay (CoA formation), MMNAT
Format: biochemical
Details: 5ASA as substrate; mean ± S.D. of triplicate; read-out: MMNAT IC50 5ASA
pIC50: recorded values
Would you please state pIC50, meaning minus log10 of the concentration in mol/L, as a bare number?

Example entries begin here.
COMPOUND	REPORTED_ENDPOINT	RESULT_VALUE
CCN1CCC(O)(c2ccc(F)cc2)C(C(=O)c2ccc(F)cc2)C1 (centres unmarked)	pIC50	5.89
CN1CCC(O)(c2ccccc2)C(C(=O)c2ccccc2)C1 (centres unmarked)	pIC50	5.22
CCCCN1CCC(O)(c2ccccc2)C(C(=O)c2ccccc2)C1 (centres unmarked)	pIC50	5.30

Determine its reported pIC50: CN1CCC(O)(c2ccc(Br)cc2)C(C(=O)c2ccc(Br)cc2)C1 (centres unmarked)
5.89

* * *

kobs: recorded values
Biological target: MMNAT (Mycobacterium marinum, UniProt B2HIZ6)
Sequence (B2HIZ6 entry or part of it): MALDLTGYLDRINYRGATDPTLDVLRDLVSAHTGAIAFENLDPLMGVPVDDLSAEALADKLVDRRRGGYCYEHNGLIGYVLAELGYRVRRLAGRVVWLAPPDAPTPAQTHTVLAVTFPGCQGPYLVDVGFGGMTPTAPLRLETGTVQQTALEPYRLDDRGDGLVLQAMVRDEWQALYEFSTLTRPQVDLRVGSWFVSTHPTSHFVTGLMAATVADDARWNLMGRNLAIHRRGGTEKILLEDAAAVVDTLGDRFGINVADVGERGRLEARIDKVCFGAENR
Test: Time-dependent (irreversible) inactivation of MMNAT by the piperidinols
Assay type: biochemical
Conditions: inhibitor 11.9 μM; 24 °C; mean ± S.D. of triplicate

COMPOUND	REPORTED_ENDPOINT	RESULT_VALUE
O=C(c1ccccc1)C1CN(Cc2ccccc2)CCC1(O)c1ccccc1 (stereo not shown)	kobs	10 ± 1 10^−3 min^−1
CN1CCC(O)(c2ccccc2)C(C(=O)c2ccccc2)C1 (stereo not shown)	kobs	9 ± 2 10^−3 min^−1
CCN1CCC(O)(c2ccccc2)C(C(=O)c2ccccc2)C1 (stereo not shown)	kobs	15 ± 1 10^−3 min^−1
CN1CCC(O)(c2ccc(Br)cc2)C(C(=O)c2ccc(Br)cc2)C1 (stereo not shown)	kobs	74 ± 7 10^−3 min^−1

Determine its reported kobs: O=C(c1ccccc1)C1CN(C2CCCO2)CCC1(O)c1ccccc1 (stereo not shown)
163 ± 39 10^−3 min^−1

Determine its reported kobs: CCCCN1CCC(O)(c2ccccc2)C(C(=O)c2ccccc2)C1 (stereo not shown)
104 ± 8 10^−3 min^−1

Determine its reported kobs: CN1CCC(O)(c2ccc(Cl)cc2)C(C(=O)c2ccc(Cl)cc2)C1 (stereo not shown)
110 ± 2 10^−3 min^−1
